Target: NEDD4 890-928, P46934
Sequence (P46934 890-928): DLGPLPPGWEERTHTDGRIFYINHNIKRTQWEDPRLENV
OUTCOME MEASURE: selected by phage display

SEGTDNGDLPSYVSAF [RINT1, Q6NUQ1]    confidence 2 (active)
ALPPYSNAGDLYSEPV [EGR3, Q06889]    confidence 2 (active)
ADLPPPYSPTPQGPAQ [CYYR1, Q96J86]    confidence 2 (active)
GSPPSYSEALLDQRPA [LDLRAD3, Q86YD5]    confidence 3 (active)
SPPDYLQTVSHPEVYR [SH3D21, A4FU49]    confidence 3 (active)
MARRYDELPHYPGIVD [MEIS3, Q99687]    confidence 3 (active)
